target-of-assay: T1, recombinant biotinylated CD71 extracellular domain (Sino Biologics) with an N-terminal 6His tag (human, UniProt P02786 89-760, biotinylated (sites not given))
T1 construct: extracellular domain; also called hCD71; huCD71
T1 sequence (P02786 other isoform, or with tags, fused parts or gaps): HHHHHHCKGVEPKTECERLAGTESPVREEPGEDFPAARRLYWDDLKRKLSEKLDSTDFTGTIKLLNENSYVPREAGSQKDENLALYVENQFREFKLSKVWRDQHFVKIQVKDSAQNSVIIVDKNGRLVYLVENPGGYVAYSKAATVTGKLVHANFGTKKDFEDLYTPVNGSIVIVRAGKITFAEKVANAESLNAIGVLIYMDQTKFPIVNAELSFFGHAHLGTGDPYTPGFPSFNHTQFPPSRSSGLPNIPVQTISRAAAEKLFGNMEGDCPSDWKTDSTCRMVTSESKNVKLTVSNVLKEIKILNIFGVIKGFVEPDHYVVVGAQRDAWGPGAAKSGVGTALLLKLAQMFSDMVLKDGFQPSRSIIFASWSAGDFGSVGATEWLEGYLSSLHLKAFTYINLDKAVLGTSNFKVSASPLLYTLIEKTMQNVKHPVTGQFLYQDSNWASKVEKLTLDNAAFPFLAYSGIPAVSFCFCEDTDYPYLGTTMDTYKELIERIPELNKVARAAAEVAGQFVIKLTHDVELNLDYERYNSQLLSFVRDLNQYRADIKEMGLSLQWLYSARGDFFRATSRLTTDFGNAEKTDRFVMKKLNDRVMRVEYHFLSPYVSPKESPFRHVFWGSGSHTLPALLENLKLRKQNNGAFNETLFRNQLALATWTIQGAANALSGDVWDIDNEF
assay-comment: screening ELISA
measurement-kind: hCD71

Sample answers from the record:
INSERT INTO assay_data (binder, value_measured) VALUES
  ('SEQ ID NO 58 (designed binder, FN3 domain) MLPAPKNLVVSRVTEDSARLSWTAPDAAFDSFTIWYAEADGWGEAIVLTVPGSERSYDLTGLKPGTEYFVDIYGVKGGYLSVPLSAIFTT', 302000),
  ('SEQ ID NO 33 (designed binder, FN3 domain) MLPAPKNLVVSRVTEDSARLSWTAPDAAFDSFTIQYEELTTVGEAIYLRVPGSERSYDLTGLKPGTEYVVWIEGVKGGLRSNPLGAAFTT', 518000),
  ('SEQ ID NO 46 (designed binder, FN3 domain) MLPAPKNLVVSRVTEDSARLSWTAPDAAFDSFTIEYFEFTGTGEAIVLTVPGSERSYDLTGLKPGTEYYVSIYGVKGGLLSAPLSAIFTT', 113000),
  ('SEQ ID NO 34 (designed binder, FN3 domain) MLPAPKNLVVSRVTEDSARLSWTAPDAAFDSFAITYIEWWDVGEAIGLKVPGSERSYDLTGLKPGTEYRVHIQGVKGGNNSYPLDALFTT', 310000);

A: SEQ ID NO 51 (designed binder, FN3 domain) MLPAPKNLVVSRVTEDSARLSWTAPDAAFDSFFIKYIEWWADGEAIVLTVPGSERSYDLTGLKPGTEYLVEIYGVKGGKWSWPLSAIFTT
B: SEQ ID NO 57 (designed binder, FN3 domain) MLPAPKNLVVSRVTEDSARLSWTAPDAAFDSFSIKYLEWWQDGEAIVLTVPGSERSYDLTGLKPGTEYYVHIAGVKGGYRSYPLSAIFTT
C: SEQ ID NO 36 (designed binder, FN3 domain) MLPAPKNLVVSRVTEDSARLSWTAPDAAFDSFTITYIEWWENGEAIALSVPGSERSYDLTGLKPGTEYQVGIAGVKGGYKSYPLWALFTT
D: SEQ ID NO 39 (designed binder, FN3 domain) MLPAPKNLVVSRVTEDSARLSWTAPDAAFDSFDIDYREWWTLGEAIVLTVPGSERSYDLTGLKPGTEYYVNIQGVKGGLRSYPLSAIFTT
E: SEQ ID NO 48 (designed binder, FN3 domain) MLPAPKNLVVSRVTEDSARLSWTAPDAAFDSFVIEYFEQFNLGEAIVLTVPGSERSYDLTGLKPGTEYWVGIYGVKGGWLSHPLSAIFTT
Returns the items ordered by hCD71, from maximum to minimum. Answer by listing the labels in the requested order.
A, C, B, E, D
(A: 9.71e+06, C: 3.3e+06, B: 1.9e+06, E: 943000, D: 507000)
